# Tested on: WT and genome-edited intestine-liver-on-a-chip (Caco-2 and HepG2 cells)
# test.name: Drug permeability assay
# Format: in vitro ADME, human
# condition.notes: flow conditions, WT and genome-edited chips
measured.parameter: drug concentration in the bottom channel

1) CC(=O)Nc1ccc(O)cc1 | increased substantially
2) Cc1nnc2n1-c1ccc(Cl)cc1C(c1ccccc1Cl)=NC2 | increased substantially
3) CC(C)NCC(O)COc1cccc2ccccc12 (stereo not shown) | increased substantially
